Target Or System: human PAR4 (Homo sapiens, UniProt Q96RI0)
Sequence (Q96RI0 18-385): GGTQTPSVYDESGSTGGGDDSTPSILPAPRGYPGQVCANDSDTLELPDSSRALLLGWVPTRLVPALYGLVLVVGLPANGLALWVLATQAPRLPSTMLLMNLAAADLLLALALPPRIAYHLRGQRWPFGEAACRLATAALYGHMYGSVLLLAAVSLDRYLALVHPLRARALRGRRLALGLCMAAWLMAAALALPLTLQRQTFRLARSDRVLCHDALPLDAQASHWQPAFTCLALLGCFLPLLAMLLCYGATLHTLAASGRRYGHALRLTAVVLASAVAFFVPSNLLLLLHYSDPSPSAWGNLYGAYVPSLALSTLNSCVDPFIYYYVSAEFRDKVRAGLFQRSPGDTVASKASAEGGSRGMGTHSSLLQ
Assay Protocol: PAR4 FLIPR assay: antagonism of agonist-peptide-induced calcium mobilization in PAR4-expressing HEK293 cells
Setup Conditions: H-Ala-Phe(4-F)-[…]NH2-induced intracellular calcium mobilization, 11-point curves
pIC50: −log10 of the molar value.
Measured Attribute: pIC50

The examples below pair each entry with its known result.
[
  {
    "Molecule": "COCc1cnc2c(-c3nc4c(C)c(F)c(OCCOC(=O)Nc5ccc(F)nc5)cc4s3)cc(C)cc2n1",
    "pIC50": 9.05
  },
  {
    "Molecule": "COc1cc(C(O)C2(C)CC2)c2nc(-c3cc(C)cc4nc(OC)cnc34)sc2c1 (centres unmarked)",
    "pIC50": 8.72
  },
  {
    "Molecule": "COc1cnc2c(-c3nc4cc(F)c(OC[C@@H](C)OC(=O)Nc5cnc(CCO)nc5)cc4s3)cc(C)cc2n1",
    "pIC50": 8.43
  }
]

I = COc1cc(C(O)C(C)(C)C)c2nc(-c3cc(C)cc4nc(OC)cnc34)sc2c1 (centres unmarked) [Example 630]
II = COCc1cnc2c(-c3nc4c(Cl)cccc4s3)cc(C)cc2n1
// query When the recorded pIC50 values are compared, which is smaller: that of I or that of II ? Use the label to indicate which entry you chose.
// result II
(II: 8.32, I: 8.85)

* * *

Target Or System: human PAR4 (Homo sapiens, UniProt Q96RI0)
Sequence (Q96RI0 18-385): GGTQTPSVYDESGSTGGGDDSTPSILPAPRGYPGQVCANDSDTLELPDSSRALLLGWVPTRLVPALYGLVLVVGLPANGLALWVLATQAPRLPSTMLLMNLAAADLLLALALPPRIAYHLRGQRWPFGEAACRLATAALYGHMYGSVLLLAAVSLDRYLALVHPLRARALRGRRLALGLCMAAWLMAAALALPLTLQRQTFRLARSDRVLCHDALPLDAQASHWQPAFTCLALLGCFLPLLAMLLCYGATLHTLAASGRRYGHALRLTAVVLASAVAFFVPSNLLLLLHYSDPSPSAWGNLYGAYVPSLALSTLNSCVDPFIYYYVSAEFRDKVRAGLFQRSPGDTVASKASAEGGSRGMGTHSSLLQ
Assay Protocol: PAR4 FLIPR assay: antagonism of agonist-peptide-induced calcium mobilization in PAR4-expressing HEK293 cells
Setup Conditions: H-Ala-Phe(4-F)-[…]NH2-induced intracellular calcium mobilization, 11-point curves
Measured Attribute: IC50 (nM)

[
  {
    "Molecule": "COc1cnc2c(-c3nc4c(Cl)c(F)c(OCCOC(=O)Nc5cnn(C)c5)cc4s3)cc(C)cc2n1 [Example 365]",
    "IC50 [nM]": 2.5
  },
  {
    "Molecule": "COc1cnc2c(-c3nc4cc(F)c(O[C@@H](C)[C@@H](C)OC(=O)Nc5cnc(C)nc5)cc4s3)cc(F)cc2c1 [Example 772]",
    "IC50 [nM]": 1.5
  },
  {
    "Molecule": "COc1cnc2c(-c3nc4cc(F)c(O[C@@H](C)[C@@H](C)OC(=O)Nc5cncc(C#N)c5)cc4s3)cc(Cl)cc2n1 [Example 826]",
    "IC50 [nM]": 1.9
  }
]

* * *

Target Or System: human PAR4 (Homo sapiens)
Assay Protocol: PAR4 FLIPR assay: antagonism of agonist-peptide-induced calcium mobilization in PAR4-expressing HEK293 cells
Setup Conditions: H-Ala-Phe(4-F)-[…]NH2-induced intracellular calcium mobilization, 11-point curves
Measured Attribute: IC50 (nM)

1 = COc1cnc2c(-c3nc4c(Cl)c(F)c(OCCCC(=O)Nc5cccnc5)cc4s3)cc(C)cc2n1
2 = COc1cnc2c(-c3nc4cc(F)c(O[C@@H](C)[C@@H](C)OC(=O)Nc5ccc(CCO)nc5)cc4s3)cc(Cl)cc2n1
3 = [2H]C([2H])(O)c1c(C)c(OC)cc2sc(-c3cc(C)cc4nc(COC)cnc34)nc12
// query Falling order of IC50, please. Would you mind listing the labels in the order asked for?
// result 1, 2, 3

* * *

Target Or System: human PAR4 (Homo sapiens)
Assay Protocol: PAR4 FLIPR assay: antagonism of agonist-peptide-induced calcium mobilization in PAR4-expressing HEK293 cells
Setup Conditions: H-Ala-Phe(4-F)-[…]NH2-induced intracellular calcium mobilization, 11-point curves
pIC50: −log10 of the molar value.
Measured Attribute: pIC50

Guide cases for pIC50, answers given:
[
  {
    "Compound": "COC(=O)c1ccc(NC(=O)O[C@H](C)COc2nc3sc(-c4cc(C)cc5nc(OC)cnc45)nc3cc2F)cn1",
    "Measured Attribute": "pIC50",
    "Obs Value": 9.52
  },
  {
    "Compound": "Cc1cc(-c2nc3c(C)cc(OCCNS(=O)(=O)c4ccccc4)cc3s2)c2ncc(OC(F)F)nc2c1",
    "Measured Attribute": "pIC50",
    "Obs Value": 8.64
  },
  {
    "Compound": "COc1cc(C(O)C2(OC)CCC2)c2nc(-c3cc(C)cc4nc(OC)cnc34)sc2c1 (stereo not shown)",
    "Measured Attribute": "pIC50",
    "Obs Value": 8.96
  },
  {
    "Compound": "COc1cnc2c(-c3nc4cc(F)c(O[C@@H](C)[C@@H](C)OC(=O)Nc5cnc(CCO)nc5)nc4s3)cc(C)cc2n1",
    "Measured Attribute": "pIC50",
    "Obs Value": 8.49
  },
  {
    "Compound": "COCc1cnc2c(-c3nc4cc(CO)c(OC)cc4s3)cc(C)cc2n1",
    "Measured Attribute": "pIC50",
    "Obs Value": 8.17
  }
]

A = COc1cnc2c(-c3nc4cc(F)c(O[C@@H](C)[C@@H](C)OC(=O)Nc5ccc(C(=O)N(C)C)nc5)cc4s3)cc(C)cc2n1
B = COCc1cnc2c(-c3nc4c(C)cc(OC)cc4s3)cc(OC(F)(F)F)cc2n1
// query I'm curious whether A or B has the smaller pIC50 number. Which is it? In your reply, give the label of the chosen option.
// result B

* * *

Target Or System: human PAR4 (Homo sapiens)
Assay Protocol: PAR4 FLIPR assay: antagonism of agonist-peptide-induced calcium mobilization in PAR4-expressing HEK293 cells
Setup Conditions: H-Ala-Phe(4-F)-[…]NH2-induced intracellular calcium mobilization, 11-point curves
Measured Attribute: IC50 (nM)

[
  {
    "Compound": "CCOc1cnc2c(-c3nc4cc(F)c(O[C@@H](C)[C@@H](C)OC(=O)Nc5cnc(C)nc5)cc4s3)cc(C)cc2c1 [Example 660]",
    "Obs Value": 2
  },
  {
    "Compound": "COc1cnc2c(-c3nc4cc(F)c(OC[C@@H](C)OC(=O)Nc5cnc(OCCO)nc5)nc4s3)cc(C)cc2n1 [Example 685]",
    "Obs Value": 1.7
  }
]

a = COCc1cnc2c(-c3nc4c(F)cc(OC)cc4s3)cc(C)cc2n1 [Example 254]
b = Cc1cc(-c2nc3c(C)cc(OCCNS(=O)(=O)c4ccc(Cl)cc4)cc3s2)c2ncc(OC(F)F)nc2c1 [Example 86]
// query Record comparison, field IC50: mark the lower of a and b . Identify your pick by its label.
// result a
(a: 1.5 nM, b: 7.2 nM)

I = COCc1cnc2c(-c3nc4c(C(C)(C)O)cc(OC)cc4s3)cc(C)cc2n1 [Example 157]
II = COCc1cnc2c(-c3nc4c(OC)cc(OC)cc4s3)cc(C)cc2n1 [Example 258]
III = COc1cnc2c(-c3nc4cc(F)c(OC[C@@H](C)OC(=O)Nc5ccc(C(C)(C)O)nc5)cc4s3)cc(C)cc2n1 [Example 498]
IV = COc1cnc2c(-c3nc4cc(F)c(OC[C@@H](C)OC(=O)Nc5ccc(C(=O)N6CCOCC6)nc5)cc4s3)cc(C)cc2n1 [Example 435]
V = COc1cnc2c(-c3nc4cc(F)c(OC(C)C)cc4s3)cc(CO)cc2n1 [Example 248]
// query Rank ascending by IC50. Your answer should be the labels, listed in the requested order.
// result IV, III, II, V, I

1 = Cc1cc(-c2cc3ccccc3s2)c2ncc(OC(F)F)nc2c1 [Example 40]
2 = COc1cnc2c(-c3nc4cc(F)c(O[C@@H](C)[C@@H](C)OC(=O)Nc5ccc(OCCO)nc5)cc4s3)cc(C)cc2n1 [Example 571]
3 = COc1cnc2c(-c3nc4c(F)c(F)c(OC)cc4s3)cc(CO)cc2n1 [Example 220]
// query Order the records by IC50, with each subsequent value no larger than the one before. Give the labels in the order requested.
// result 1, 3, 2
(1: 36 nM, 3: 2.6 nM, 2: 1 nM)

P = COc1cnc2c(-c3nc4cc(F)c(OC[C@@H](C)OC(=O)Nc5ccc(C)nc5)nc4s3)cc(C)cc2n1 [Example 681]
Q = CCOc1cc(C(O)C(C)(C)C)c2nc(-c3cc(C)cc4nc(OC)cnc34)sc2c1 (stereo not drawn) [Example 640]
// query Could you kindly indicate whether P or Q has the higher IC50 value? Pick one; state its label.
// result Q
